- Tested on: Staphylococcus sp.
- assay.remarks: in vitro antibacterial evaluation, MIC by broth dilution
- Assay type: cell-based
- test.settings: broth dilution, 18 hours at 35° C.
parameter: MIC Coagulase Negative Staphylococcus (GC 4551) (µg/mL)

{"compound": "CCCCOC(=O)CCC1OCC2OC(OC3C(CO)OC(Oc4ccc(CC5NC(=O)C(C(C)c6ccccc6)NC(=O)CNC(=O)C(CO)NC(=O)C(C(O)C6CNC(=N)N6C6OC(CO)C(O)C(O)C6O)NC(=O)C(C(O)C6CNC(=N)N6)NC5=O)cc4)C(O)C3O)C(O)C(O)C2O1 (centres unmarked)", "output.unit": "µg/mL", "number": 2}
{"compound": "CC(c1ccccc1)C1NC(=O)CNC(=O)C(CO)NC(=O)C(C(O)C2CNC(=N)N2C2OC(CO)C(O)C(O)C2O)NC(=O)C(C(O)C2CNC(=N)N2)NC(=O)C(Cc2ccc(OC3OC(CO)C(OC4OC(COCC=C(c5ccccc5)c5ccccc5)C(O)C(O)C4O)C(O)C3O)cc2)NC1=O (centres unmarked)", "output.unit": "µg/mL", "number": 4}

---

- Tested on: Enterococcus sp.
- assay.remarks: in vitro antibacterial evaluation, MIC by broth dilution
- Assay type: cell-based
- test.settings: broth dilution, inoculum 5×10^5 CFU/mL, 18 hours at 35° C.; strain GC 3059

{"molecule": "CC(c1ccccc1)C1NC(=O)CNC(=O)C(CO)NC(=O)C(C(O)C2CNC(=N)N2C2OC(CO)C(O)C(O)C2O)NC(=O)C(C(O)C2CNC(=N)N2)NC(=O)C(Cc2ccc(OC3OC(CO)C(OC4OC5COC6(CCCCC6(C)C)OC5C(O)C4O)C(O)C3O)cc2)NC1=O (centres unmarked)", "system": "Enterococcus sp.", "MIC Enterococcus faecalis (GC 3059) (µg/mL)": 2}

---

Attribute: MIC Streptococcus pneumoniae (GC 1894)
- System: Streptococcus sp.
- assay.remarks: in vitro antibacterial evaluation, MIC by broth dilution
- Type: cell-based
- test.settings: broth dilution, inoculum 5×10^5 CFU/mL, 18 hours at 35° C.; strain GC 1894
- Text: Methods for in vitro Antibacterial Evaluation (Table 1) […]

{"compound": "CC(c1ccccc1)C1NC(=O)CNC(=O)C(CO)NC(=O)C(C(O)C2CNC(=N)N2C2OC(CO)C(O)C3OC(C)(C)OC32)NC(=O)C(C(O)C2CNC(=N)N2)NC(=O)C(Cc2ccc(OC3OC(CO)C(OC4OC(CO)C(O)C(O)C4O)C4OC(C)(C)OC34)cc2)NC1=O (stereo not shown)", "MIC Streptococcus pneumoniae (GC 1894)": ">128 µg/mL"}
{"compound": "CC(c1ccc(Cl)cc1)C1NC(=O)CNC(=O)C(CO)NC(=O)C(C(O)C2CNC(=N)N2C2OC(CO)C(O)C(O)C2O)NC(=O)C(C(O)C2CNC(=N)N2)NC(=O)C(Cc2ccc(OC3OC(CO)C(OC4OC5COC(C6CCCCC6)OC5C(O)C4O)C(O)C3O)cc2)NC1=O (stereo not shown)", "MIC Streptococcus pneumoniae (GC 1894)": "<0.06 µg/mL"}
{"compound": "CC(c1ccccc1)C1NC(=O)CNC(=O)C(CO)NC(=O)C(C(O)C2CNC(=N)N2C2OC(CO)C(O)C(O)C2O)NC(=O)C(C(O)C2CNC(=N)N2)NC(=O)C(Cc2ccc(OC3OC(CO)C(OC4OC(CO)C(OCC=C(c5ccccc5)c5ccccc5)C(O)C4O)C(O)C3O)cc2)NC1=O (stereo not shown) [Example 241a]", "MIC Streptococcus pneumoniae (GC 1894)": "<0.06 µg/mL"}
{"compound": "CSc1ccc(C2OCC3OC(OC4C(CO)OC(Oc5ccc(CC6NC(=O)C(C(C)c7ccccc7)NC(=O)CNC(=O)C(CO)NC(=O)C(C(O)C7CNC(=N)N7C7OC(CO)C(O)C(O)C7O)NC(=O)C(C(O)C7CNC(=N)N7)NC6=O)cc5)C(O)C4O)C(O)C(O)C3O2)cc1[N+](=O)[O-] (stereo not shown)", "MIC Streptococcus pneumoniae (GC 1894)": "<0.12 µg/mL"}
{"compound": "CCCC(C)C1OCC2OC(OC3C(CO)OC(Oc4ccc(CC5NC(=O)C(C(C)c6ccc(Cl)cc6)NC(=O)CNC(=O)C(CO)NC(=O)C(C(O)C6CNC(=N)N6C6OC(CO)C(O)C(O)C6O)NC(=O)C(C(O)C6CNC(=N)N6)NC5=O)cc4)C(O)C3O)C(O)C(O)C2O1 (stereo not shown)", "MIC Streptococcus pneumoniae (GC 1894)": "0.12 µg/mL"}
{"compound": "CCCOc1ccc(COCC2OC(OC3C(CO)OC(Oc4ccc(CC5NC(=O)C(C(C)c6ccccc6)NC(=O)CNC(=O)C(CO)NC(=O)C(C(O)C6CNC(=N)N6C6OC(CO)C(O)C(O)C6O)NC(=O)C(C(O)C6CNC(=N)N6)NC5=O)cc4)C(O)C3O)C(O)C(O)C2O)cc1 (stereo not shown)", "MIC Streptococcus pneumoniae (GC 1894)": "<0.06 µg/mL"}
{"compound": "CC(c1ccccc1)C1NC(=O)CNC(=O)C(CO)NC(=O)C(C(O)C2CNC(=N)N2C2OC(CO)C(O)C(O)C2O)NC(=O)C(C(O)C2CNC(=N)N2)NC(=O)C(Cc2ccc(OC3OC(CO)C(OC4OC5COC(c6ccc(-c7ccsc7)cc6)OC5C(O)C4O)C(O)C3O)cc2)NC1=O (stereo not shown)", "MIC Streptococcus pneumoniae (GC 1894)": "<0.06 µg/mL"}

---

Consider the following molecules and their measured MIC Staphylococcus aureus (GC 4544) readings.
- Test system: Staphylococcus sp.
- assay.remarks: in vitro antibacterial evaluation, MIC by broth dilution
- Type: cell-based
- test.settings: broth dilution, 18 hours at 35° C.; strain GC 4544
Numbered stars: 1 amine (or outer) side, 2 acyl side, 3 side chain; on linkers, the order of the positions; unused ones are H or OH. Square brackets hold non-standard residues; d marks the D form. Peptide text beside a SMILES is read from it. * marks the point of attachment. ξ: configuration not given here. X1 = N=C1NCC(C(O)C(N[*:1])C(=O)[*:2])N1C1OC(CO)C(O)C(O)C1O; ξEnduracididine(βξ-OH,4'ξ) = N=C1NCC(C(O)C(N)C(=O)O)N1; ξPhe(4-Cl,βξ-Me) = CC(c1ccc(Cl)cc1)C(N)C(=O)O; X2 = OCC1OC(OC2C(CO)OC(*)C(O)C2O)C(O)C(O)C1O
parameter: MIC Staphylococcus aureus (GC 4544) (µg/mL)

{"molecule": "COc1cc(C2OCC3OC(OC4C(CO)OC(Oc5ccc(CC6NC(=O)C(C(C)c7ccccc7)NC(=O)CNC(=O)C(CO)NC(=O)C(C(O)C7CNC(=N)N7C7OC(CO)C(O)C(O)C7O)NC(=O)C(C(O)C7CNC(=N)N7)NC6=O)cc5)C(O)C4O)C(O)C(O)C3O2)ccc1[N+](=O)[O-] (stereo not shown) [Example 153]", "system": "Staphylococcus sp.", "value.operator": "=", "number": 2}
{"molecule": "Cc1ccc(Oc2ccc(C3OCC4OC(OC5C(CO)OC(Oc6ccc(CC7NC(=O)C(C(C)c8ccccc8)NC(=O)CNC(=O)C(CO)NC(=O)C(C(O)C8CNC(=N)N8C8OC(CO)C(O)C(O)C8O)NC(=O)C(C(O)C8CNC(=N)N8)NC7=O)cc6)C(O)C5O)C(O)C(O)C4O3)cc2)cc1 (stereo not shown) [Example 174]", "system": "Staphylococcus sp.", "value.operator": "=", "number": 1}
{"molecule": "CC(c1ccc(Cl)cc1)C1NC(=O)CNC(=O)C(CO)NC(=O)C(C(O)C2CNC(=N)N2C2OC(CO)C(O)C(O)C2O)NC(=O)C(C(O)C2CNC(=N)N2)NC(=O)C(Cc2ccc(OC3OC(CO)C(OC4OC(CO)C(O)C(O)C4O)C(O)C3O)cc2)NC1=O (stereo not drawn) [Example 262a] (cyclo(G[ξPhe(4-Cl,βξ-Me)]Y(X2)[ξEnduracididine(βξ-OH,4'ξ)][X1]S); configuration not given here)", "system": "Staphylococcus sp.", "value.operator": "=", "number": 64}
{"molecule": "COc1ccc(COCC2OC(OC3C(CO)OC(Oc4ccc(CC5NC(=O)C(C(C)c6ccccc6)NC(=O)CNC(=O)C(CO)NC(=O)C(C(O)C6CNC(=N)N6C6OC(CO)C(O)C(O)C6O)NC(=O)C(C(O)C6CNC(=N)N6)NC5=O)cc4)C(O)C3O)C(O)C(O)C2O)cc1OCc1ccccc1 (stereo not shown) [Example 239]", "system": "Staphylococcus sp.", "value.operator": "=", "number": 2}
{"molecule": "COc1cc(C2OCC3OC(OC4C(CO)OC(Oc5ccc(CC6NC(=O)C(C(C)c7ccccc7)NC(=O)CNC(=O)C(CO)NC(=O)C(C(O)C7CNC(=N)N7C7OC(CO)C(O)C(O)C7O)NC(=O)C(C(O)C7CNC(=N)N7)NC6=O)cc5)C(O)C4O)C(O)C(O)C3O2)cc([N+](=O)[O-])c1O (stereo not shown) [Example 169]", "system": "Staphylococcus sp.", "value.operator": "=", "number": 32}
{"molecule": "CCCCCNC(=O)OC1C(CO)OC(OC2C(CO)OC(Oc3ccc(CC4NC(=O)C(C(C)c5ccccc5)NC(=O)CNC(=O)C(CO)NC(=O)C(C(O)C5CNC(=N)N5C5OC(CO)C(O)C(O)C5O)NC(=O)C(C(O)C5CNC(=N)N5)NC4=O)cc3)C(O)C2O)C(O)C1O (stereo not shown) [Example 251]", "system": "Staphylococcus sp.", "value.operator": ">", "number": 64}
{"molecule": "CC(c1ccccc1)C1NC(=O)CNC(=O)C(CO)NC(=O)C(C(O)C2CNC(=N)N2C2OC(CO)C(O)C(O)C2O)NC(=O)C(C(O)C2CNC(=N)N2)NC(=O)C(Cc2ccc(OC3OC(CO)C(OC4OC5COC(Cc6ccc(Cl)cc6)OC5C(O)C4O)C(O)C3O)cc2)NC1=O (stereo not shown) [Example 120]", "system": "Staphylococcus sp.", "value.operator": "<", "number": 0.5}
